compounds and their reported OX2 pKi (SPA binding)
# Measured Target: human Orexin type 2 receptors (Homo sapiens (Human), UniProt O43614)
# Sequence (O43614 whole entry): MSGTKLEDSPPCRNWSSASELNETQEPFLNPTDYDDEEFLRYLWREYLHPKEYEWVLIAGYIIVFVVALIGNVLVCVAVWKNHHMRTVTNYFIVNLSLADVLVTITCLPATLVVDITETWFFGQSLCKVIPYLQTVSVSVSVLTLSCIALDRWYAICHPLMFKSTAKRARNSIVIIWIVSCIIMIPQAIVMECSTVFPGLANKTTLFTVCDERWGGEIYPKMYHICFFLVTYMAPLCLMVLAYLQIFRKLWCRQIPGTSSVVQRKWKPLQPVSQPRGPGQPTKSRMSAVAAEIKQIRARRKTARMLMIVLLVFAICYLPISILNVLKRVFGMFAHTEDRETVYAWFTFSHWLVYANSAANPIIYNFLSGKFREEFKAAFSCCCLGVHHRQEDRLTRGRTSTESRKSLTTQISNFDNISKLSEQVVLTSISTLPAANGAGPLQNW
# Protocol Notes: Scintillation Proximity Assay (SPA) binding assay, [3H]EMPA displacement, HEK-hOX2 membranes
# Condition Context: Table 2, [3H]EMPA 2 nM
Respond using a number only.

In the examples that follow, each entry is paired with its recorded OX2 pKi (SPA binding).
{"columns": ["Compound", "Experimental Value"],
 "data": [
  ["Cc1ccc(-n2nccn2)c(C(=O)N2C3CC(C3)[C@@H](C)C2CNc2cnc(C(F)(F)F)cn2)n1 (mixture of isomers) [Example 165]", 4.83],
  ["C[C@@H]1C2CC(C2)N(C(=O)c2cc(F)ccc2-n2nccn2)C1CNc1ncc(C(F)(F)F)cn1 (stereo partly drawn) [Example 251]", 4.69],
  ["Cc1ccc(-n2nccn2)c(C(=O)N2C3CC(C3)[C@@H](C)C2COc2ccc(C(F)(F)F)cn2)n1 (mixture of isomers) [Example 129]", 5.14],
  ["C[C@@H]1C2CC(C2)N(C(=O)c2cc(Cl)ccc2-n2nccn2)C1CNc1cnc(C(F)(F)F)cn1 (mixture of isomers) [Example 203]", 5.05],
  ["Cc1nc(C(=O)N2C3CC(C3)[C@@H](C)C2COc2ccc(F)cc2)c(-c2cncc(Cl)c2)s1 (mixture of isomers) [Example 139]", 6.18]
]}

Now turn to the next compound.
Record Cc1ccc(-c2ncccn2)c(C(=O)N2C3CC(C3)[C@H](C)C2COc2ccc(Cl)cn2)n1 (mixture of isomers) [Example 118] . Reported OX2 pKi (SPA binding): 5.75

====

compounds and their reported fraction unbound at 5 h, 5 μM
# Protocol Notes: Measurement of brain fraction unbound (equilibrium dialysis)
# Type: in vitro ADME
# Condition Context: pH 7.4, rat brain homogenate, 37° C., read-out: FU brain (%, rat)
Respond using a number only.

Record C[C@@H]1C2CC(C2)N(C(=O)c2cc(C#N)ccc2-n2nccn2)C1CNc1nc2cccnc2s1 (single isomer, unassigned) . Reported fraction unbound at 5 h, 5 μM: 0.066

Record C[C@@H]1C2CC(C2)N(C(=O)c2cc(Cl)ccc2-n2nccn2)C1CNc1cnc(C(F)(F)F)cn1 (single isomer, unassigned) . Reported fraction unbound at 5 h, 5 μM: 0.0089

Record Cc1ccc(-n2nccn2)c(C(=O)N2C3CC(C3)[C@H](C)C2COc2ccc(F)cc2)n1 (single isomer, unassigned) . Reported fraction unbound at 5 h, 5 μM: 0.0116

====

# Measured Target: human Orexin type 1 receptors (Homo sapiens (Human), UniProt O43613)
# Sequence (O43613 whole entry): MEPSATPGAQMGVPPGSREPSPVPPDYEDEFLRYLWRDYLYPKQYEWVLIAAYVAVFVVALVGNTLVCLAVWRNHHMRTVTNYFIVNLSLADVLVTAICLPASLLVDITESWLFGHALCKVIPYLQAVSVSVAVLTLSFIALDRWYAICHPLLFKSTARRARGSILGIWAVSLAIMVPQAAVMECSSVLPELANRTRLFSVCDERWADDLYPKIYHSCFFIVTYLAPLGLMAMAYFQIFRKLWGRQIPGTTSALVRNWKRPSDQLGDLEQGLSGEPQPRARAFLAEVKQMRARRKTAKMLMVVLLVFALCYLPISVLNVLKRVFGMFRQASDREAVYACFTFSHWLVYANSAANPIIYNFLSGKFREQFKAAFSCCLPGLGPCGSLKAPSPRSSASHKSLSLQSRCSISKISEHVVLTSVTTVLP
# Protocol Notes: Scintillation Proximity Assay (SPA) binding assay, [3H]SB-674042 displacement, CHO-hOX1 membranes
# Condition Context: Table 2, [3H]SB-674042 2 nM
Assay Metric: OX1 pKi (SPA binding)
Respond using a number only.

In the examples that follow, each entry is paired with its recorded OX1 pKi (SPA binding).
{"columns": ["Molecule", "OX1 pKi (SPA binding)"],
 "data": [
  ["Cc1nc(C(=O)N2[C@H]3C[C@H](C3)[C@@H](C)[C@H]2COc2ccc(F)cc2)c(-c2ccccn2)s1 (racemic)", 7.97],
  ["C[C@@H]1C2CC(C2)N(C(=O)c2cc(C#N)ccc2-n2nccn2)C1CNc1nc2ccc(F)cc2s1 (single isomer, unassigned) [Example 177]", 8.95],
  ["C[C@@H]1C2CC(C2)N(C(=O)c2cc(Cl)ccc2-n2nccn2)C1CNc1ccc(C(F)(F)F)nn1 (stereo partly shown)", 6.74]
]}

Record Cc1nc(C(=O)N2C3CC(C3)[C@@H](C)C2COc2ccc(F)cc2)c(-n2nccn2)s1 (stereo partly shown) . Reported OX1 pKi (SPA binding): 7.49

Record Cc1nc(C(=O)N2C3CC(C3)[C@H](C)C2COc2ccc(F)cc2)c(-n2nccn2)s1 (mixture of isomers) . Reported OX1 pKi (SPA binding): 7.39

Record Cc1ccc(-n2nccn2)c(C(=O)N2C3CC(C3)[C@@H](C)C2CNc2nc3ccc(F)cc3s2)n1 (single isomer, unassigned) [Example 154] . Reported OX1 pKi (SPA binding): 9.06

Record Cc1ccc(-n2nccn2)c(C(=O)N2C3CC(C3)[C@@H](C)C2CNc2cnc(C(F)(F)F)cn2)n1 (single isomer, unassigned) [Example 167] . Reported OX1 pKi (SPA binding): 8.12

Record C[C@@H]1C2CC(C2)N(C(=O)c2cc(Cl)ccc2-n2nccn2)C1CNc1cnc(C(F)(F)F)cn1 (mixture of isomers) [Example 203] . Reported OX1 pKi (SPA binding): 8.17
